Organism: Rattus norvegicus
Test name: Open TG-GATES - Regimen: Single
Type: toxicity, organism-based, Sprague-Dawley
Set-up: regimen Single, gender Male, age 6 weeks
Protocol conditions: in vivo, po, 100 mg/kg, 24 h, tissue Plasma, route gavage, dose level Low
Each item that follows carries a reported TG.
Your answer should be a plain number; it is taken to be in mg/dL.

Example entries begin here.
- Molecule: "NC(N)=Nc1nc(CSCCC(N)=NS(N)(=O)=O)cs1"
  TG / mg/dL: 82.6
- Molecule: "COc1ccc2[nH]c([S+]([O-])Cc3ncc(C)c(OC)c3C)nc2c1 (centres undefined)"
  TG / mg/dL: 89.8
- Molecule: "COC1=CC(=O)C[C@@H](C)[C@]12Oc1c(Cl)c(OC)cc(OC)c1C2=O"
  TG / mg/dL: 95

Record request: TG value, item CCOC(=O)CCC(=O)O[C@H]1[C@H](O[C@@H]2[C@@H](C)[C@H](O[C@H]3C[C@@](C)(OC)[C@@H](O)[C@H](C)O3)[C@@H](C)C(=O)O[C@H](CC)[C@@](C)(O)[C@H](O)[C@@H](C)C(=O)[C@H](C)C[C@@]2(C)O)O[C@H](C)C[C@@H]1N(C)C [ERYTHROMYCIN ETHYLSUCCINATE]
71.6
